target: CYP2C8 (Homo sapiens)
Sequence (P10632 whole entry): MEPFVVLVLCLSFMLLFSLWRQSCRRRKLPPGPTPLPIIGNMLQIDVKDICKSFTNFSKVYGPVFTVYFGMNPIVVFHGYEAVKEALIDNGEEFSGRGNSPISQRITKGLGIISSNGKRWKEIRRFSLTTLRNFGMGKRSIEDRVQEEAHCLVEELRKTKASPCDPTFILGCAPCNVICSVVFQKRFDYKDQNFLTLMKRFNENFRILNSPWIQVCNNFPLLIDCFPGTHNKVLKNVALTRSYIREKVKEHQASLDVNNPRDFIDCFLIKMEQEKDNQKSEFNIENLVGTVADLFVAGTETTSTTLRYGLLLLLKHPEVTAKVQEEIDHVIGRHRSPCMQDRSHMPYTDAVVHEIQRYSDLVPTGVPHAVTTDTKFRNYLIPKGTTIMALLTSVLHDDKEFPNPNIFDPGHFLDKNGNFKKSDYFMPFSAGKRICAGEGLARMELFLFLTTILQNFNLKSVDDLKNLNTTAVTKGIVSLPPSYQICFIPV
measured_metric: IC50

Lookup: Entry under review: Cc1cc2nc3s/c(=C/c4ccc(-c5cccc(C(=O)O)c5)o4)c(=O)n3c2cc1C [NBCoV63] . Reported IC50?
Found: > 25 µM

---

test: in vitro; conditions: human
measured_metric: CC50

Completed entries (count: 2):
{"columns": ["compound", "measured_metric", "measured_result"],
 "data": [
  ["Cc1cc2nc3s/c(=C/c4ccc(-c5cccc(C(=O)O)c5)o4)c(=O)n3c2cc1C [NBCoV63]", "CC50", "> 50 µM"],
  ["Cc1ccc2nc3s/c(=C/c4coc(-c5ccc(Cl)c(C(=O)O)c5)c4)c(=O)n3c2c1 [NBCoV35]", "CC50", "> 50 µM"]
]}

Fill in CC50 for each of the 2 compounds listed.
1. Cc1cc(C)c2nc3s/c(=C\c4ccc(-c5ccc(Cl)c(C(=O)O)c5)o4)c(=O)n3c2c1 [NBCoV37]
2. O=C(O)c1cc(-c2ccc(/C=c3\sc4nc(=O)c5c6c(sc5n4c3=O)CCCC6)o2)ccc1Cl [NBCoV36]

Found:
1: 48 µM; 2: > 50 µM
